B1: Protein S100-G, residues 1 to 79; numbered along this chain, P02633 (parent)
chain: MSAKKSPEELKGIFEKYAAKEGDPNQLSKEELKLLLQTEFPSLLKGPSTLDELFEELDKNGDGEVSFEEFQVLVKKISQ

# Variants of: B1
# procedureDetails: abundance fitness (aPCA) (normalised: wild type 0, dead -1); higher = more abundant; growth selection in yeast, the domain comes from the species named
# experimentalSetup: Bos taurus
Threshold rule: abundance fitness greater than or equal to -0.04 is criterion met; below that, criterion not met.

recordSequence	groupLabel
MSAKKSPEELKGIFEKYAAKEPDPNQLSKEELKLLLQTEFPSLLKGPSTLDELFEELDKNGDGEVSFEEFQVLVKKISQ [G22P]	criterion not met
MSAKKSPEELKGIFEKYAAKEGDPNQLSKEELKLLLQTEFPSLLKGPSTFDELFEELDKNGDGEVSFEEFQVLVKKISQ [L50F]	criterion met
MSAKKSPEELKGIFEKYAAKEGDPNQLSKEELKLLLQTEFPSLLKGPSTTDELFEELDKNGDGEVSFEEFQVLVKKISQ [L50T]	criterion met
MSAKKSPEELKGIFEKYAAKEGDPNQLSKEELKLLLQTEFPSLLKCPSTLDELFEELDKNGDGEVSFEEFQVLVKKISQ [G46C]	criterion met
MSFKKSPEELKGIFEKYAAKEGDPNQLSKEELKLLLQTEFPSLLKGPSTLDELFEELDKNGDGEVSFEEFQVLVKKISQ [A3F]	criterion met
MSAKKSPEELKGIFGKYAAKEGDPNQLSKEELKLLLQTEFPSLLKGPSTLDELFEELDKNGDGEVSFEEFQVLVKKISQ [E15G]	criterion not met
MSAKKSPEELKGIFEKYAAKEGDPNQLSKEELKLLLQTEFPSLLKGPSTLDELFEELDKNGDGEVSFEEFQVLVKKFSQ [I77F]	criterion met
MSAKKSPEELKGIFEKYAAKEGDPNALSKEELKLLLQTEFPSLLKGPSTLDELFEELDKNGDGEVSFEEFQVLVKKISQ [Q26A]	criterion not met
MSAKKSPEELKGIFEKYAAKEGDPNQLSKEELKLLLQTEFPSLLKGPSTLDELFEELDKNGDGEVLFEEFQVLVKKISQ [S66L]	criterion not met
MSAKKSPEELKGIFEKYAAKEGDPNQLSKEEDKLLLQTEFPSLLKGPSTLDELFEELDKNGDGEVSFEEFQVLVKKISQ [L32D]	criterion not met
MSAKKSPEELKGIFEKYAAKEGDPNQLSKEELKLLLQTEFPSLLKGPSTLDELCEELDKNGDGEVSFEEFQVLVKKISQ [F54C]	criterion met
MSAKKSPEEYKGIFEKYAAKEGDPNQLSKEELKLLLQTEFPSLLKGPSTLDELFEELDKNGDGEVSFEEFQVLVKKISQ [L10Y]	criterion met
MSAKKSPEELKGIFEKYAAKEGDPNQLSKEELKLLLQTEFPSLLKGPSTLDELFEELDKNGDGEWSFEEFQVLVKKISQ [V65W]	criterion met
MSAKKSPEELKGLFEKYAAKEGDPNQLSKEELKLLLQTEFPSLLKGPSTLDELFEELDKNGDGEVSFEEFQVLVKKISQ [I13L]	criterion met
MSAKKSPEEVKGIFEKYAAKEGDPNQLSKEELKLLLQTEFPSLLKGPSTLDELFEELDKNGDGEVSFEEFQVLVKKISQ [L10V]	criterion not met
MSAKKSPEELKGIFEKYAAKEGDPNQLSKEELKLLLQTEFPSLLKGPCTLDELFEELDKNGDGEVSFEEFQVLVKKISQ [S48C]	criterion not met
MSAKKSPHELKGIFEKYAAKEGDPNQLSKEELKLLLQTEFPSLLKGPSTLDELFEELDKNGDGEVSFEEFQVLVKKISQ [E8H]	criterion not met
MSAKKSPEELKGIFEKYAAKEGDPNQLSKEELKLLLQTEFPSLLKGPSTLDELFEELDKNGDGEVSFEWFQVLVKKISQ [E69W]	criterion not met
HSAKKSPEELKGIFEKYAAKEGDPNQLSKEELKLLLQTEFPSLLKGPSTLDELFEELDKNGDGEVSFEEFQVLVKKISQ [M1H]	criterion not met
MSAKKSPEELKGIFEKYAAKEGDPNQLSKEELKLLLQTEFPSLDKGPSTLDELFEELDKNGDGEVSFEEFQVLVKKISQ [L44D]	criterion met
FSAKKSPEELKGIFEKYAAKEGDPNQLSKEELKLLLQTEFPSLLKGPSTLDELFEELDKNGDGEVSFEEFQVLVKKISQ [M1F]	criterion not met
MSAKKSPEELKGIFEKYAAKEGDPNQLSKTELKLLLQTEFPSLLKGPSTLDELFEELDKNGDGEVSFEEFQVLVKKISQ [E30T]	criterion met
MSAKKSPEELKGIFEKYAAKEGDPNQLSKEELKLLLQTEFPSLLKGPSTLDELFEELFKNGDGEVSFEEFQVLVKKISQ [D58F]	criterion met
MSAKKSPEELKGIFEKYAAKEGDPNQLSKEELKLLLQTEMPSLLKGPSTLDELFEELDKNGDGEVSFEEFQVLVKKISQ [F40M]	criterion met
MSAKKSHEELKGIFEKYAAKEGDPNQLSKEELKLLLQTEFPSLLKGPSTLDELFEELDKNGDGEVSFEEFQVLVKKISQ [P7H]	criterion not met
MSAKKSPEELKGIFEKYAAKEGDPNQLSKEELKLLLQTEFPSLLKGPSTLVELFEELDKNGDGEVSFEEFQVLVKKISQ [D51V]	criterion met
MSAKKSPEELKGIFEKYAAKEGDPNQLSKEELKLLLQTEFPSLLKGPSTLDELFEELDKNGDGEVSFEEFDVLVKKISQ [Q71D]	criterion met
MSAKKSPEELKGIFEKYAAKEGDPNQLSKEELKLLLQTEFPSLLKGMSTLDELFEELDKNGDGEVSFEEFQVLVKKISQ [P47M]	criterion met
MSAKKLPEELKGIFEKYAAKEGDPNQLSKEELKLLLQTEFPSLLKGPSTLDELFEELDKNGDGEVSFEEFQVLVKKISQ [S6L]	criterion not met
MSAKKSPEELKGIFEKYAAKEGDPNQLSKEELKLLLQTEFPSLLKGPSTLDELFEELDKNGDGEVSFEEFQVLVKKHSQ [I77H]	criterion not met
MSAKKSPEELKGIFTKYAAKEGDPNQLSKEELKLLLQTEFPSLLKGPSTLDELFEELDKNGDGEVSFEEFQVLVKKISQ [E15T]	criterion met
MSAKKSPEELKGIFEKYAAKEGDPNQLSMEELKLLLQTEFPSLLKGPSTLDELFEELDKNGDGEVSFEEFQVLVKKISQ [K29M]	criterion not met
MSAKKSPEELKGIFEKYAAKEGDPNQLSKEELKLLLQTEFPSLLKGPSTLDELFEELDKNGDGEVSFEEFQSLVKKISQ [V72S]	criterion not met
MSAKKSPEELKGIFEKYAAKEGDPNQLSKEELKLLLQTEFPSLLKGPSTLDELFEELDKNGDGEVSFEERQVLVKKISQ [F70R]	criterion not met
MSAKKSPEELKGIFEKYAAKEGDPNQLSKEELKLLQQTEFPSLLKGPSTLDELFEELDKNGDGEVSFEEFQVLVKKISQ [L36Q]	criterion not met
MSAKKSPEELKGIFPKYAAKEGDPNQLSKEELKLLLQTEFPSLLKGPSTLDELFEELDKNGDGEVSFEEFQVLVKKISQ [E15P]	criterion not met
MSAKKSPEELKGIFEKYAAKEGDPNQLSKEEHKLLLQTEFPSLLKGPSTLDELFEELDKNGDGEVSFEEFQVLVKKISQ [L32H]	criterion not met
MSAKKSPEELKGIFEKYAAKEGDPNQLSKEELKLLLQTEFPSLLKGPSTLDELFEELDGNGDGEVSFEEFQVLVKKISQ [K59G]	criterion met
MSTKKSPEELKGIFEKYAAKEGDPNQLSKEELKLLLQTEFPSLLKGPSTLDELFEELDKNGDGEVSFEEFQVLVKKISQ [A3T]	criterion not met
MSAKKSPEELKGIFEKYAAKEGDPNQLSKEELKLLLQTEFPSLLKGPSTLDELFEELDKNGDGEVSFFEFQVLVKKISQ [E68F]	criterion not met
MSAKKSPEELTGIFEKYAAKEGDPNQLSKEELKLLLQTEFPSLLKGPSTLDELFEELDKNGDGEVSFEEFQVLVKKISQ [K11T]	criterion not met
MSAKKSPEELKGIFEKYAAKEGDPNQLSKEELKLLLQTEFPHLLKGPSTLDELFEELDKNGDGEVSFEEFQVLVKKISQ [S42H]	criterion not met
MSAKKSPEELKGIFEKYAAKEGDPNQVSKEELKLLLQTEFPSLLKGPSTLDELFEELDKNGDGEVSFEEFQVLVKKISQ [L27V]	criterion met
MSAKKSPQELKGIFEKYAAKEGDPNQLSKEELKLLLQTEFPSLLKGPSTLDELFEELDKNGDGEVSFEEFQVLVKKISQ [E8Q]	criterion met
MSAKKSREELKGIFEKYAAKEGDPNQLSKEELKLLLQTEFPSLLKGPSTLDELFEELDKNGDGEVSFEEFQVLVKKISQ [P7R]	criterion not met
MSAKKSPEELKGIFEKYAAKEGDPNQLSKEELKLLLQTEFPSLLKGPSTLDILFEELDKNGDGEVSFEEFQVLVKKISQ [E52I]	criterion not met
